From: patent US6509328B1

// melting point lookup, one value per entry

# count of solved cases: 3
INSERT INTO results (compound_structure, data_value) VALUES
  ('CS(=O)(=O)N1CC=C(c2ccc3c(c2)NC(=O)CC(c2cccc(C#N)c2)=N3)CC1', '211 to 213 °C (dec.)'),
  ('Cc1cc(-c2cccc(C3=Nc4ccc(-c5ccccc5F)cc4NC(=O)C3)c2)on1', '222 to 224 °C'),
  ('N#Cc1ccc(-c2ccc3c(c2)NC(=O)CC(c2cccc(C#N)c2)=N3)cc1', '240 °C (dec.)');

Look up melting point: O=C1CC(c2cccc(-n3cnnn3)c2)=Nc2ccc(-c3ccccc3F)cc2N1
179 to 180 °C

Queued: Nc1cccc(C2=Nc3ccc(-c4ccc(F)cc4)cc3NC(=O)C2)c1
210 to 217 °C (dec.)

Could you do the same for N#Cc1cccc(C2=Nc3ccc(I)cc3NC(=O)C2)c1 , please?
198 to 200 °C (dec.)

---

ASSAY_METRIC: melting point

Example results:
INSERT INTO assay_data (compound_structure, assay_metric, data_value) VALUES
  ('CS(=O)(=O)N1CC=C(C#Cc2ccc3c(c2)NC(=O)CC(c2cccc(C#N)c2)=N3)CC1', 'melting point', '235 °C'),
  ('O=C1CC(c2cccc(-n3ccnc3)c2)=Nc2ccc(C#Cc3ccccc3)cc2N1', 'melting point', '193 to 196 °C'),
  ('O=C1CC(c2cccc(-c3nc(CO)cs3)c2)=Nc2ccc(-c3ccc(F)cc3)cc2N1', 'melting point', '235 to 239 °C (dec.)'),
  ('O=C1CC(c2cccc(Cl)c2)=Nc2ccc(C(=O)c3ccccc3)cc2N1', 'melting point', '199 to 202 °C (dec.)'),
  ('N#Cc1cccc(C2=Nc3ccc(C4=CCN(S(=O)(=O)c5ccccc5)CC4)cc3NC(=O)C2)c1', 'melting point', '92 to 95 °C (dec.)');

Item N#Cc1cccc(C2=Nc3ccc(C#Cc4ccccc4Cl)cc3NC(=O)C2)c1 has what recorded melting point?
239 to 240 °C (dec.)

Field entry: CN1CCN(C(=O)c2cccc(C3=Nc4ccc(C#Cc5ccccc5)cc4NC(=O)C3)c2)CC1
168 to 172 °C (dec.)

Could you do the same for Cc1nccn1-c1cccc(C2=Nc3ccc(-c4ccccc4F)cc3NC(=O)C2)c1 , please?
187 °C

Do the same for N#Cc1cccc(C2=Nc3ccc(C#CC4=CCOCC4)cc3NC(=O)C2)c1 please
238 °C

Here is the next compound: O=C1CC(c2cccc(C(F)(F)F)c2)=Nc2ccc(-c3ccccc3)cc2N1
210 °C (dec.)

Ok, now N#Cc1cccc(C2=Nc3ccc(C#Cc4ccc(F)cc4)cc3NC(=O)C2)c1
245 to 246 °C

Similarly, N#Cc1cccc(C2=Nc3ccc(CCc4ccccc4)cc3NC(=O)C2)c1 ?
212 to 214 °C

Follow-up entry: CCOC(=O)c1csc(-c2cccc(C3=Nc4ccc(-c5ccc(F)cc5)cc4NC(=O)C3)c2)n1
236 to 238 °C (dec.)

Follow-up item: CC(C)(C)OC(=O)N1CC=C(C#Cc2ccc3c(c2)NC(=O)CC(c2cccc(C#N)c2)=N3)CC1
239 °C

Now consider N#Cc1cccc(C2=Nc3ccc(-c4cccs4)cc3NC(=O)C2)c1 and answer again.
> 250 °C (dec.)

Param item: N#Cc1cccc(C2=Nc3ccc(C#Cc4ccc(OC(F)(F)F)cc4)cc3NC(=O)C2)c1
239 to 241 °C

Same lookup for CC(=O)N1CC=C(c2ccc3c(c2)NC(=O)CC(c2cccc(C#N)c2)=N3)CC1 , please.
220 to 222 °C (dec.)

---

ASSAY_METRIC: melting point

Consider the following illustrative entries.
INSERT INTO results (compound_structure, data_value) VALUES
  ('Cc1csc(-c2cccc(C3=Nc4ccc(-c5ccc(F)cc5)cc4NC(=O)C3)c2)n1', '259 to 261 °C (dec.)'),
  ('N#Cc1cccc(C2=Nc3ccc(-c4ccc(Cl)c(Cl)c4)cc3NC(=O)C2)c1', '252 to 255 °C (dec.)');

Param item = N#Cc1ccsc1C1=CC(=O)Nc2cc(-c3ccccc3F)ccc2N1 ; retrieve measured melting point.
238 to 240 °C

---

ASSAY_METRIC: melting point

INSERT INTO measurements (compound_structure, data_value) VALUES
  ('CCOC(=O)c1csc(-c2cccc(C3=Nc4ccc(-c5ccccc5F)cc4NC(=O)C3)c2)n1', '172 to 175 °C'),
  ('Cc1cn(-c2cccc(C3=Nc4ccc(C#Cc5ccccc5)cc4NC(=O)C3)c2)c(C)n1', '134 °C (dec.)'),
  ('N#Cc1cccc(C2=Nc3ccc(-c4ccccc4)cc3NC(=O)C2)c1', '238 to 240 °C (dec.)'),
  ('O=C1CC(c2cccc(-n3ccnc3)c2)=Nc2ccc(-c3ccc(OCc4ccccc4)nc3)cc2N1', '225 to 231 °C'),
  ('Cc1nccn1-c1cccc(C2=Nc3ccc(-c4ccc(F)cc4)cc3NC(=O)C2)c1', '227 °C'),
  ('Cc1ccc(C#Cc2ccc3c(c2)NC(=O)CC(c2cccc(C#N)c2)=N3)cc1', '236 to 239 °C (dec.)'),
  ('O=C1CC(c2cccc(-n3ccnn3)c2)=Nc2ccc(C#Cc3ccc(F)cc3)cc2N1', '246 to 248 °C');

Turning now to a further record.
Fill in: melting point of Cc1nnc(-c2cccc(C3=Nc4ccc(-c5ccc(F)cc5)cc4NC(=O)C3)c2)o1 is ___
254 to 256 °C (dec.)

---

biological target: rat mGlu2 receptor (Rattus norvegicus)
Sequence (P31421 19-872): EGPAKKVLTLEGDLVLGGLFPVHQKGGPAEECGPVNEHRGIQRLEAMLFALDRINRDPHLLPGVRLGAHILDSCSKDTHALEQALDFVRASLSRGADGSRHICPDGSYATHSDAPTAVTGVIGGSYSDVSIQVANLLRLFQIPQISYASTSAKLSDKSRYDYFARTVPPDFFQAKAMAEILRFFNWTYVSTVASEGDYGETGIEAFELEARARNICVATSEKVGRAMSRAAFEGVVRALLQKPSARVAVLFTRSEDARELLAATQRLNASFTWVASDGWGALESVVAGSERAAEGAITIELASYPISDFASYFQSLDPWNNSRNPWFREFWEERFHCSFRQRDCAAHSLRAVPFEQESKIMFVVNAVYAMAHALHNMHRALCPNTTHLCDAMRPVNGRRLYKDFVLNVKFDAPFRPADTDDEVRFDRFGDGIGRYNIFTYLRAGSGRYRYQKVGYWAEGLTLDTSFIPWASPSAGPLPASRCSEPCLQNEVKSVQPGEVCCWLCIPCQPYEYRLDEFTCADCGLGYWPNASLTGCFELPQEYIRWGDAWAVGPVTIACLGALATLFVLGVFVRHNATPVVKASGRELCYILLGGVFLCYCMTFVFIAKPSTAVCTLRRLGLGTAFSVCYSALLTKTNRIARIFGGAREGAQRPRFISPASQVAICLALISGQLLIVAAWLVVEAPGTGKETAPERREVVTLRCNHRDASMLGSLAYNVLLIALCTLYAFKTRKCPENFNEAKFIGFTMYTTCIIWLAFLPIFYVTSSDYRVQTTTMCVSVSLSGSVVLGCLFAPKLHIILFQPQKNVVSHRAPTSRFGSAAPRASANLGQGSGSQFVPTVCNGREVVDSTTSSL
pKi: −log10 of the molar value.
So basically, the class depends on measured pKi, and the ranges are lowest (below 7), middle (7 to below 8), highest (8 or more)

Take a look at these entries with their results.
INSERT INTO assay_data (compound_structure, tested_on, label_value) VALUES
  ('N#Cc1cc(C2=Nc3ccc(C#Cc4ccccc4)cc3NC(=O)C2)ccn1', 'rat mGlu2 receptor (Rattus norvegicus)', 'middle'),
  ('O=C1CC(c2cccc(Cl)c2)=Nc2ccc(C#Cc3ccccc3)cc2N1', 'rat mGlu2 receptor (Rattus norvegicus)', 'middle'),
  ('O=C1CC(c2ccnc(-n3ccnc3)c2)=Nc2ccc(C#Cc3ccc(F)cc3)cc2N1', 'rat mGlu2 receptor (Rattus norvegicus)', 'highest'),
  ('N#Cc1ccsc1C1=CC(=O)Nc2cc(-c3ccc(F)cc3)ccc2N1', 'rat mGlu2 receptor (Rattus norvegicus)', 'lowest');

Band for the recorded pKi of O=C1CC(c2csc(-n3ccnc3)n2)=Nc2ccc(-c3ccccc3F)cc2N1 ?
lowest

Let us now turn to N#Cc1cc(C2=Nc3ccc(-c4ccc(F)cc4F)cc3NC(=O)C2)ccn1
middle

Next entry: O=C1CC(c2cccc(-n3ccnc3)c2)=Nc2ccc(C#Cc3ccc(F)cc3)cc2N1
highest

Check O=C1CC(c2cccc(-n3ccnc3)c2)=Nc2ccc(-c3ccc(F)cc3O)cc2N1 too.
lowest

Same question, O=C1CC(c2cccc(-n3cncn3)c2)=Nc2ccc(C#Cc3ccc(F)cc3)cc2N1 this time
middle

---

This section presents compounds with their documented melting point values.

Solved cases below.
INSERT INTO measurements (compound_structure, assay_metric, data_value) VALUES
  ('Cc1cn(-c2cccc(C3=Nc4ccc(-c5ccccc5F)cc4NC(=O)C3)c2)c(C)n1', 'melting point', '92 °C'),
  ('Cc1cn(-c2cccc(C3=Nc4ccc(-c5ccc(F)cc5)cc4NC(=O)C3)c2)cn1', 'melting point', '215 °C'),
  ('N#Cc1cccc(C2=Nc3ccc(C#Cc4ccccc4F)cc3NC(=O)C2)c1', 'melting point', '213 to 214 °C'),
  ('N#Cc1cccc(C2=Nc3ccc(-c4cccc(F)c4F)cc3NC(=O)C2)c1', 'melting point', '240 °C'),
  ('C#Cc1cccc(C2=Nc3ccc(C#Cc4ccccc4)cc3NC(=O)C2)c1', 'melting point', '> 250 °C (dec.)');

Which melting point value belongs to N#Cc1cccc(C2=Nc3ccc(C4CC4)cc3NC(=O)C2)c1 ?
204 to 209 °C

Continue with CS(=O)(=O)Nc1cccc(C2=Nc3ccc(-c4ccc(F)cc4)cc3NC(=O)C2)c1
232 to 235 °C

Now give it for N#Cc1cc(C2=Nc3ccc(C4CC4)cc3NC(=O)C2)ccn1 too.
227 to 230 °C

Continue with Cc1ccccc1-c1ccc2c(c1)NC(=O)CC(c1sccc1Cl)=N2
247 to 248 °C (dec.)

Please give the result for O=C1CC(c2cccc(C(F)(F)F)c2)=Nc2ccc(-c3ccc(OCc4ccccc4)nc3)cc2N1 too.
195 °C (dec.)

Same lookup for Cc1noc(-c2cccc(C3=Nc4ccc(-c5ccc(F)cc5)cc4NC(=O)C3)c2)n1 , please.
266 to 268 °C

---

// values below are reported melting point

INSERT INTO measurements (compound, data_value) VALUES
  ('Cc1cn(-c2nc(C3=Nc4ccc(-c5ccc(F)cc5)cc4NC(=O)C3)cs2)cn1 [Example 107]', '229 °C'),
  ('COc1cccc(-c2ccc3c(c2)NC(=O)CC(c2cccc(C#N)c2)=N3)c1 [Example 39]', '240 to 243 °C (dec.)'),
  ('O=C1CC(c2sccc2Cl)=Nc2ccc(-c3ccccn3)cc2N1 [Example 23]', '220 to 225 °C (dec.)');

What melting point value was documented for this compound, N#Cc1cc(C2=Nc3ccc(-c4ccc(F)cc4F)cc3NC(=O)C2)ccn1 [Example 104] ?
250 to 253 °C

Thanks! And N#Cc1cccc(C2=Nc3ccc(-c4cccc(F)c4)cc3NC(=O)C2)c1 [Example 96] ?
232 to 235 °C

Next record, please: O=C1CC(c2cccc(Cl)c2)=Nc2ccc(-c3ccccc3)cc2N1 [Example 19]
208 °C (dec.)
